Test system: SNB-19
Test: Cytotoxicity against human SNB19 cells assessed as cell growth at 100 uM after 48 hrs by sulforhodamine B assay relative to control
Format: functional
Details: SNB-19, 48 h, read-out: Activity
The label is Fulfilled for growth at 100 µM below -40% and Not fulfilled for growth at 100 µM equal to or exceeding -40%.

Some solved cases for reference:
> print(dat)
                            smiles.notation    label.class
1  COc1ccc(C(=O)/C=C/c2cc(-c3cc(OC)c(OC)c(OC)c3)n[nH]2)cc1  Not fulfilled
2  COc1cc2c(cc1OC)C(=O)/C(=C/c1cc(-c3ccc4c(c3)OCO4)n[nH]1)C2      Fulfilled
3  COc1cc(C(=O)/C=C/c2cc(-c3ccc4c(c3)OCO4)n[nH]2)cc(OC)c1OC      Fulfilled
4  COc1cc(-c2cc(/C=C/C(=O)c3ccc4c(c3)OCO4)[nH]n2)cc(OC)c1OC  Not fulfilled

Task: growth at 100 µM under -40%? Item: COc1ccc(C(=O)/C=C/c2cc(-c3ccc(OC)c(OC)c3)n[nH]2)cc1OC
Output: Not fulfilled

Data credit: ChEMBL document CHEMBL4138123
